Tested on: viral RNA polymerase
Assay: Potential inhibitors: Results Screen
Assay type: biochemical
Conditions: test concentration not given
Each record's class is read off its Results Screen Median Screen (% inhibition) using these ranges: b0 = under 70 % inhibition, b1 = from 70 % inhibition up to 80 % inhibition, b2 = 80 % inhibition and over

Would you please look over these solved cases?
- COMPOUND: "CCC(C)C(=O)O[C@H]1CCC=C2C=C[C@H](C)[C@H](CC[C@@H](O)C[C@@H](O)CC(=O)O)[C@H]21 (stereo partly shown)"
  CATEGORY LABEL: "b2"
- COMPOUND: "Oc1cc(O)cc(CCC/C=C\\CCCCCCCCCc2cc(O)cc(O)c2)c1"
  CATEGORY LABEL: "b1"
- COMPOUND: "CCC(C)C(=O)OC1CC(C)C=C2C=CC(C)C(CCC(O)CC(O)CC(=O)O)C21 (stereo not shown)"
  CATEGORY LABEL: "b2"
- COMPOUND: "OC[C@@H]1O[C@H](Oc2ccc(O)c3cccc(O)c23)[C@@H](O)[C@H](O)[C@H]1O"
  CATEGORY LABEL: "b0"
- COMPOUND: "COc1cc(-c2oc3cc(O[C@H]4O[C@@H](CO)[C@H](O)[C@@H](O)[C@@H]4O)c(OC)c(O)c3c(=O)c2OC)ccc1O"
  CATEGORY LABEL: "b1"
- COMPOUND: "O=C(OC[C@@H]1O[C@H](Oc2ccc(O)cc2CO)[C@@H](O)[C@H](O)[C@H]1O)c1ccccc1 (racemic)"
  CATEGORY LABEL: "b0"
- COMPOUND: "CC(=O)O[C@H]1CC[C@]2(C)C(CC[C@@]3(C)C2[C@@H](O)C=C2[C@@H]4[C@H](C)[C@@H](C)CC[C@@]4(C)CC[C@@]23C)[C@]1(C)C(C)=O (stereo partly shown)"
  CATEGORY LABEL: "b1"
- COMPOUND: "COc1ccc2c(c1)OC1c3ccc(OC)cc3OCC21 (stereo not shown)"
  CATEGORY LABEL: "b2"

Qu. Class label required: COC(=O)C1=COC(OC2O[C@@H](CO)[C@H](O)[C@@H](O)[C@@H]2O)[C@H]2C1C=CC21C=C(C(C)CC(=O)/C=C/c2ccc(O)cc2)C(=O)O1 (stereo partly shown)
Ans. b0

Qu. Class label required: "COc1cc(O)c2c(=O)c(O[C@H]3O[C@H](C)[C@@H](O)[C@H](O)[C@@H]3O)c(-c3ccc(O)cc3)oc2c1O"
Ans. b1

Qu. Class label required: "C/C=C/c1ccc2c(c1)[C@H](C)[C@@H](c1ccc(O)cc1)O2"
Ans. b2

Qu. Class label required: CC1(C)C2CC[C@]3(C)C(C(=O)C=C4[C@H]5C[C@@](C)(C(=O)O)CC[C@]5(C)CC[C@]43C)[C@@]2(C)CC[C@@H]1O (stereo partly shown)
Ans. b1

Qu. Class label required: CC1CCC2(C)CCC3(C)C(=CCC4C5(C)CCC(O)C(C)(C(=O)O)C5CCC43C)C2C1C (stereo not shown)
Ans. b2
